The following molecules are listed with their measured C-term flag values.
TARGET_DESC: T1, B3GNT2 (Homo sapiens, UniProt Q9NY97)
T1 construct: The respective ORFs of candidate genes [CD274 (NM_014143), MCL1 (NM_021960), JUNB (NM_002229), and B3GNT2 (NM_006577)] were synthesized; expressed in transfected cells; host or cells: A375 melanoma cells (lentiviral ORF overexpression)
T1 sequence (Q9NY97 1-397): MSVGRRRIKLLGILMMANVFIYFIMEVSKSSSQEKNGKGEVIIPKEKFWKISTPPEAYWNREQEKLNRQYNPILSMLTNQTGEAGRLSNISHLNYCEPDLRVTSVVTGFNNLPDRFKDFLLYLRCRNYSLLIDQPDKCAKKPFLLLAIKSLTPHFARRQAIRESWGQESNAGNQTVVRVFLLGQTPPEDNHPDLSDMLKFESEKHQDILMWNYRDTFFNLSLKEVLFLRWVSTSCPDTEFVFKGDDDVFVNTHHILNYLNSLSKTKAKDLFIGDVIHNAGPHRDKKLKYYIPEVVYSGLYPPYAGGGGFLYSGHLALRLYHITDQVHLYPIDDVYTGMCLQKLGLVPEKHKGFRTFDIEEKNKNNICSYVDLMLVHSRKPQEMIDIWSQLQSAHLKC
PROCEDURE_TEXT: Co-IP of FLAG-tagged B3GNT2 followed by mass spectrometry
Format: cell-based
Design: unit not given here
REPORTED_CONDITIONS: Co-IP followed by mass spectrometry of B3GNT2; C-term tag, FLAG pull-down
Method: Cells were plated in 10-cm cell culture dishes and grown to 60-80% confluency. For each condition, two biological replicates were harvested for co-IP. Cells were washed with PBS and 4 mL of lysis buffer (20 mM HEPES, 1% Triton X-100, 150 mM NaCl, 1 mM EDTA, and 10% glycerol) containing protease inhibitor cocktail was added. […] The effluent from the column was analyzed using a Thermo Orbitrap Elite mass spectrometer (nanospray configuration) operated in a data dependent manner for 54 minutes. […]

{"MOLECULE": "CHCHD3 (protein) GGTTSTRRVTFEADENENITVVKGIRLSENVIDRMKESSPSGSKSQRYSGAYGASVSDEELKRRVAEELALEQAKKESEDQKRLKQAKELDRERAAANEQLTRAILRERICSEEERAKAKHLARQLEEKDRVLKKQDAFYKEQLARLEERSSEFYRVTTEQYQKAAEEVEAKFKRYESHPVCADLQAKILQCYRENTHQTLKCSALATQYMHCVNHAKQSMLEKGG", "C-term flag": 15}
{"MOLECULE": "S100A7 (protein) SNTQAERSIIGMIDMFHKYTRRDDKIEKPSLLTMMKENFPNFLSACDKKGTNYLADVFEKKDKNEDKKIDFSEFLSLLGDIATDYHKQSHGAAPCSGGSQ", "C-term flag": 5}
{"MOLECULE": "ARG1 (protein) MSAKSRTIGIIGAPFSKGQPRGGVEEGPTVLRKAGLLEKLKEQECDVKDYGDLPFADIPNDSPFQIVKNPRSVGKASEQLAGKVAEVKKNGRISLVLGGDHSLAIGSISGHARVHPDLGVIWVDAHTDINTPLTTTSGNLHGQPVSFLLKELKGKIPDVPGFSWVTPCISAKDIVYIGLRDVDPGEHYILKTLGIKYFSMTEVDRLGIGKVMEETLSYLLGRKKRPIHLSFDVDGLDPSFTPATGTPVVGGLTYREGLYITEEIYKTGLLSGLDIMEVNPSLGKTPEEVTRTVNTAVAITLACFGLAREGNHKPIDYLNPPK", "C-term flag": 6}
